Read-out: JUN Transcription Factor, JUN (gene 3725)
assay_procedure: LTEA_HepaRG_JUN: Life Technologies and Expression Analysis (LTEA) Assay for JUN Transcription Factor using HepaRG (AID 2283513)
assay_setup: mRNA level, 48 h; actives raise or lower the signal
The source made the active and inactive calls. How the source made its calls: active means hit-call score of the fitted dose curve at least 0.9, where 1 is the maximum; inactive means score below 0.9.
Give one outcome, nothing more. List: T for active, F for inactive

Recorded results for 6 compounds are shown here.
1. O=C1c2c(O)cccc2Cc2cccc(O)c21 = F
2. Cc1ccc(-c2cc(C(F)(F)F)nn2-c2ccc(S(N)(=O)=O)cc2)cc1 = T
3. CC(=O)CC(c1ccccc1)c1c(O)c2ccccc2oc1=O (stereo not given) = F
4. S=c1[nH]c2ccccc2s1 = F
5. O=C(Oc1ccccc1)c1cccc(C(=O)Oc2ccccc2)c1 = F
6. COc1ccc(C(=O)Nc2nc3ccccc3c(NCc3ccccc3)c2C#N)cc1 = F

Note: attention shifts to another entry.
Answer briefly: the call reported for CC(C)(C)c1ccccc1 in this assay.
F
